From: patent US20230141533A1

- ASSAY NOTES: Water stability over time without applied voltage (HPLC residual rate)
- Assay type: physicochemical
- STUDY CONDITIONS: aqueous mixed solution with NIKKOL HCO-40, allowed to stand at 25° C. for 24 hours; HPLC area after 24 hours ÷ area immediately after preparation × 100
Would you please tag the item yes (1) when its Residual rate (%) is 10% or above, and no (0) when it is below?

| MOLECULE | LABEL CLASS |
| --- | --- |
| Cc1c(C(C)(C)C)cc(C(C)(C)C)c(O)c1C1C(=O)Oc2c1cc(C(C)(C)C)cc2C(C)(C)C (centres unmarked) | no (0) |
| COc1cc(OC)c(C2C(=O)Oc3c2cc(C(C)(C)C)cc3C(C)(C)C)c(OC)c1 (centres unmarked) | yes (1) |
| Cc1cc(C)c(C2C(=O)Oc3c2cc(C(C)(C)C)cc3C(C)(C)C)c(C)c1 (centres unmarked) | yes (1) |
| Cc1ccc(C2C(=O)Oc3c2cc(C(C)(C)C)cc3C(C)(C)C)cc1C (centres unmarked) | no (0) |
| Cc1cc(C)c(C2C(=O)Oc3c2cc(C)cc3C(C)(C)C)c(C)c1 (centres unmarked) | yes (1) |
| CCCCCCCCOc1ccc(C2C(=O)Oc3c2cc(C(C)(C)C)cc3C(C)(C)C)cc1 (centres unmarked) | no (0) |
| COc1cc(OC)c(C2C(=O)Oc3c2cc(C)cc3C(C)(C)C)c(OC)c1 (centres unmarked) | yes (1) |
